experiment.summary: Relative Sensitivity in Aqueous Solution System (color formation with H2O2, peroxidase and 1,7-dihydroxynaphthalene)
measurement.conditions: relative steepness of calibration curve; reference (C1) = 1.0; pH 6.0; 37° C., 10 min; 515 nm
quantity: Relative Sensitivity (aq. sol.)

compound	Relative Sensitivity (aq. sol.)
Cc1c(N)c(=O)n(-c2ccccc2)n1C [Compound (C1), reference compound]	1.0
Cn1c(-c2ccccc2)c(N)c(=O)n1C [(C2), reference compound]	0.77
Cc1c(N)c(=O)n(-c2c(Cl)cc(Cl)cc2Cl)n1C	0.70
Cn1c(-c2ccccc2)c(N)c(=O)n1-c1ccccc1	0.82
Cc1c(N)c(=O)n(-c2cccc(Cl)c2)n1C	0.99
